B1: SLC35F2 (parent)
chain: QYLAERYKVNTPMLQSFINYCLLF

variants of: B1; test: protein stability index of a GFP-peptide fusion (GPS, HEK-293T) (PSI 1-6); higher = more stable; conditions: c terminus: a fixed tail appended;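 further: lentivirally expressed fusions sorted by FACS into six bins by GFP to DsRed ratio, PSI derived from sequencing read proportions per bin multiplied by bin number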
Where protein stability index equals or exceeds 3, the correct label is class 1; where it does not, the label is class 0.

Known results for variants:
CHAIN: QYLAMRYKVNTPMLQSFINYCLLF [E5M]
LABEL_VALUE: class 1

CHAIN: AYLAERYKVNTPMLQSFINYCLLF [Q1A]
LABEL_VALUE: class 0

CHAIN: QKLAERYKVNTPMLQSFINYCLLF [Y2K]
LABEL_VALUE: class 0

CHAIN: QYLAERMKVNTPMLQSFINYCLLF [Y7M]
LABEL_VALUE: class 0

CHAIN: QYLAERGKVNTPMLQSFINYCLLF [Y7G]
LABEL_VALUE: class 1

CHAIN: QYLAERYKVNTPMLQSFINYCLYF [L23Y]
LABEL_VALUE: class 0

Ask: protein stability index >= 3 for QYLAFRYKVNTPMLQSFINYCLLF [E5F] ?
Result: class 1

Ask: Again, but for QYLAERYKTNTPMLQSFINYCLLF [V9T]
Result: class 0

Ask: Again, but for QYLAERYKVNMPMLQSFINYCLLF [T11M]
Result: class 0

Ask: Again, but for QYYAERYKVNTPMLQSFINYCLLF [L3Y]
Result: class 0

Ask: Again, but for QYLAERYKVNTPMLQSFINYCNLF [L22N]
Result: class 0
